# assay: Plasma pharmacokinetics and brain distribution after single IV, IP and oral administration
# Format: in vivo
# experimental-conditions: male, C57BL/6, mouse; plasma, IV 2 mg/kg
Counter-ions that a name gives are not always drawn.
experimental-endpoint: AUC(0-t) (ng·h/mL)
Give bare numbers, in ng·h/mL.

I would be grateful if you could share the reported AUC(0-t) for [2H]C1([2H])Oc2ccc(Nc3nc(-c4c(C)nc5ccccn45)cs3)cc2O1 [Compound 17, hydrochloride] . 85.7

====

# assay: Plasma pharmacokinetics and brain distribution after single IV, IP and oral administration
# Type: in vivo
# experimental-conditions: male, C57BL/6, mouse; plasma, IP 10 mg/kg
Where a name gives a salt, the structure may show the parent alone.
experimental-endpoint: AUC(0-t) (ng·h/mL)
Numbers only, in ng·h/mL.

I would be grateful if you could share the reported AUC(0-t) for [2H]C1([2H])Oc2ccc(Nc3nc(-c4c(C)nc5ccccn45)cs3)cc2O1 [Compound 17, hydrochloride] . 675

The measurements presented in this section are drawn from patent US12215106B2.
